Values compiled from patent US20220282217A1.

Kindly supply the reported Stability (T1/2 (h)) values for the records listed here.
molecular target: HLA-A02.01 (human); experiment: pMHC-I complex dissociation at 37 C, 125I-b2m, half-life
Number in h, nothing else.

Item: KLGGGQHGEV (also called ABL1, Y253H) | Stability (T1/2 (h)): 0.4

Item: LATEKSRWSG (also called BRAF, V600E) | Stability (T1/2 (h)): 0

Item: VLERCPHRPI (also called FGFR3, S249C) | Stability (T1/2 (h)): 0

Item: NVVPLCDLL (also called ESR1, Y537C) | Stability (T1/2 (h)): 0
